// reported Kd for each item listed
target: GSK-3
experimental.protocol: Radioligand saturation binding assay with tritiated ligands in hippocampal membranes
conditions: tritiated ligand, hippocampus of SD rat brains
property.label: Kd (nM)

>>> numeric_value("COCCN(C)C(=O)c1ccc(Nc2ncc(F)c(-c3cnc(C)n3C3CCOCC3)n2)cc1C [13d]")
6.46
>>> numeric_value("Cc1ncc(-c2nc(Nc3ccc(C(=O)N4CCCCC4)c(Cl)c3)ncc2F)n1C1CCOCC1 [13a]")
1.09
>>> numeric_value("Cc1cc(Nc2ncc(F)c(-c3cnc(C)n3C3CCOCC3)n2)ccc1C(=O)N(C)C [13c]")
2.74
>>> numeric_value("CC(=O)N1CCN(Cc2ccc(Nc3ncc(F)c(-c4cnc(C)n4C4CCOCC4)n3)cc2)CC1 [13e]")
2.94

* * *

experimental.protocol: Protein binding (% free)
Type: in vitro ADME
conditions: read-out: mean Prot binding (% free)
property.label: fraction unbound

>>> numeric_value("CC(=O)N1CCN(Cc2ccc(Nc3ncc(F)c(-c4cnc(C)n4C4CCOCC4)n3)cc2)CC1 [13e]")
0.111
>>> numeric_value("COCCN(C)C(=O)c1ccc(Nc2ncc(F)c(-c3cnc(C)n3C3CCOCC3)n2)cc1C [13d]")
0.11
>>> numeric_value("Cc1ncc(-c2nc(Nc3ccc(C(=O)N(C)C)c(Cl)c3)ncc2F)n1C1CCOCC1 [13b]")
0.056

* * *

experimental.protocol: Pharmacokinetics: half-life and bioavailability
conditions: in vivo; read-out: mean t 1/2 (converted)
property.label: half-life (h)

>>> numeric_value("COCCN(C)C(=O)c1ccc(Nc2ncc(F)c(-c3cnc(C)n3C3CCOCC3)n2)cc1C [13d]")
3.65
>>> numeric_value("Cc1ncc(-c2nc(Nc3ccc(C(=O)N(C)C)c(Cl)c3)ncc2F)n1C1CCOCC1 [13b]")
2.32
>>> numeric_value("CC(=O)N1CCN(Cc2ccc(Nc3ncc(F)c(-c4cnc(C)n4C4CCOCC4)n3)cc2)CC1 [13e]")
1.73

* * *

// reported efflux ratio for each item listed
experimental.protocol: Apparent permeability (Papp A-B) and efflux ratio
Assay type: in vitro ADME
conditions: not told; Papp B–A/Papp A–B
property.label: efflux ratio

>>> numeric_value("CC(=O)N1CCN(Cc2ccc(Nc3ncc(F)c(-c4cnc(C)n4C4CCOCC4)n3)cc2)CC1 [13e]")
1.4
>>> numeric_value("COCCN(C)C(=O)c1ccc(Nc2ncc(F)c(-c3cnc(C)n3C3CCOCC3)n2)cc1C [13d]")
0.7
>>> numeric_value("Cc1ncc(-c2nc(Nc3ccc(C(=O)N(C)C)c(Cl)c3)ncc2F)n1C1CCOCC1 [13b]")
1.2
>>> numeric_value("Cc1cc(Nc2ncc(F)c(-c3cnc(C)n3C3CCOCC3)n2)ccc1C(=O)N(C)C [13c]")
2.1

* * *

target: UniProtKB P08684
Sequence (P08684 whole entry, species assumed): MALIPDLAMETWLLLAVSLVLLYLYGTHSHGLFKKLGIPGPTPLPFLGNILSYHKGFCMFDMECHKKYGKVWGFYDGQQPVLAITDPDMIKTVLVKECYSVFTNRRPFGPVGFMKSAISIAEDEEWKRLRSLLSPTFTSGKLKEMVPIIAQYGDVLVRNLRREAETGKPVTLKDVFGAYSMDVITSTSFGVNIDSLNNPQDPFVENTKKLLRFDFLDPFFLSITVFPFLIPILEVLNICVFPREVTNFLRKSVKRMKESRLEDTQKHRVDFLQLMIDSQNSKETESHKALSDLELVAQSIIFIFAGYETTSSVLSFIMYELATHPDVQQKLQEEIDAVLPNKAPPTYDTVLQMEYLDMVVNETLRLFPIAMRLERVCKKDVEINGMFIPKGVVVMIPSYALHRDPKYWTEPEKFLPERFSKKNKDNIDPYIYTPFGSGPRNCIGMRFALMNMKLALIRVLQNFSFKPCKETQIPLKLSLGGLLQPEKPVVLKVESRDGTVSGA
experimental.protocol: CYP3A4 inhibition
Assay type: in vitro ADME
property.label: IC50

>>> result("Cc1ncc(-c2nc(Nc3ccc(C(=O)N4CCCCC4)c(Cl)c3)ncc2F)n1C1CCOCC1 [13a]")
"> 2000 nM"
>>> result("Cc1ncc(-c2nc(Nc3ccc(C(=O)N(C)C)c(Cl)c3)ncc2F)n1C1CCOCC1 [13b]")
"> 2000 nM"
>>> result("COCCN(C)C(=O)c1ccc(Nc2ncc(F)c(-c3cnc(C)n3C3CCOCC3)n2)cc1C [13d]")
"> 2000 nM"

* * *

experimental.protocol: Intrinsic clearance (CLint)
Format: in vitro ADME
conditions: cells (cell type not named); read-out: median CLint
// reported hepatocyte CLint for each item listed
property.label: hepatocyte CLint (µL/min/1e6 cells)

>>> numeric_value("COCCN(C)C(=O)c1ccc(Nc2ncc(F)c(-c3cnc(C)n3C3CCOCC3)n2)cc1C [13d]")
15.4
>>> numeric_value("CC(=O)N1CCN(Cc2ccc(Nc3ncc(F)c(-c4cnc(C)n4C4CCOCC4)n3)cc2)CC1 [13e]")
12
>>> numeric_value("Cc1ncc(-c2nc(Nc3ccc(C(=O)N4CCCCC4)c(Cl)c3)ncc2F)n1C1CCOCC1 [13a]")
34.2
>>> numeric_value("Cc1ncc(-c2nc(Nc3ccc(C(=O)N(C)C)c(Cl)c3)ncc2F)n1C1CCOCC1 [13b]")
17.5

* * *

target: human recombinant GSK3β (Homo sapiens, UniProt P49841)
Sequence (P49841 whole entry): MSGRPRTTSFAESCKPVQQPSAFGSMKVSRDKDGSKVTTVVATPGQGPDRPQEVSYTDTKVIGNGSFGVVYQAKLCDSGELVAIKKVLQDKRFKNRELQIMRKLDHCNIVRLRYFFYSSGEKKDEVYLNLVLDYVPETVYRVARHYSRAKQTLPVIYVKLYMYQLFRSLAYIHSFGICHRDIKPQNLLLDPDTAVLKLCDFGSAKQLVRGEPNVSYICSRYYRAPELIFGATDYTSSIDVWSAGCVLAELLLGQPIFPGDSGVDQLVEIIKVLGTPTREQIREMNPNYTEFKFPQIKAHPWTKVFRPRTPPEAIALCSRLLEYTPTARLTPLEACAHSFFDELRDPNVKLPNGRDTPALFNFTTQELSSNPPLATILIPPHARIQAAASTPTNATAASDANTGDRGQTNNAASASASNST
experimental.protocol: GSK3β scintillation proximity assay (SPA), inhibition of kinase activity
conditions: GSK-3β; calculated via the Cheng-Prusoff equation
pKi: −log10 of the molar value.
property.label: pKi

>>> numeric_value("COCCN(C)C(=O)c1ccc(Nc2ncc(F)c(-c3cnc(C)n3C3CCOCC3)n2)cc1C [13d]")
8.31
>>> numeric_value("Cc1ncc(-c2nc(Nc3ccc(C(=O)N4CCCCC4)c(Cl)c3)ncc2F)n1C1CCOCC1 [13a]")
8.60
>>> numeric_value("Cc1ncc(-c2nc(Nc3ccc(C(=O)N(C)C)c(Cl)c3)ncc2F)n1C1CCOCC1 [13b]")
8.52
>>> numeric_value("CC(=O)N1CCN(Cc2ccc(Nc3ncc(F)c(-c4cnc(C)n4C4CCOCC4)n3)cc2)CC1 [13e]")
8.48
>>> numeric_value("Cc1cc(Nc2ncc(F)c(-c3cnc(C)n3C3CCOCC3)n2)ccc1C(=O)N(C)C [13c]")
8.35

* * *

target: CYP1A2 (Homo sapiens, UniProt P05177)
Sequence (P05177 whole entry, species assumed): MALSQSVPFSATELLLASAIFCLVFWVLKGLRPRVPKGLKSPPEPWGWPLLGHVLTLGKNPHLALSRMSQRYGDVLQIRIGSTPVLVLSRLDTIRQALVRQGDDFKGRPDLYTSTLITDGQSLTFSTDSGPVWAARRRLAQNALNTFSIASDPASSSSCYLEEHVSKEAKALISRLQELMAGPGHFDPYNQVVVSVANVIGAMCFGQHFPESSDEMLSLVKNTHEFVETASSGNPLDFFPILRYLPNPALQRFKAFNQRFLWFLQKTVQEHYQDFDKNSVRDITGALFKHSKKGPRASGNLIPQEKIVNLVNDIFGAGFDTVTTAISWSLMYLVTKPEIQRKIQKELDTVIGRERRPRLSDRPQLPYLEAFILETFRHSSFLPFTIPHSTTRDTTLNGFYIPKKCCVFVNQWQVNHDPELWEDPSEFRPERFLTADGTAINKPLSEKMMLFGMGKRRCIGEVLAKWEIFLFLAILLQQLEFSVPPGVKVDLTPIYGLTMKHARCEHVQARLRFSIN
experimental.protocol: CYP1A2 inhibition
Format: in vitro ADME
pIC50: −log10 of the molar value.
// reported pIC50 for each item listed
property.label: pIC50

>>> result("Cc1ncc(-c2nc(Nc3ccc(C(=O)N(C)C)c(Cl)c3)ncc2F)n1C1CCOCC1 [13b]")
"< 5.70"
>>> result("COCCN(C)C(=O)c1ccc(Nc2ncc(F)c(-c3cnc(C)n3C3CCOCC3)n2)cc1C [13d]")
"< 5.70"
>>> result("Cc1ncc(-c2nc(Nc3ccc(C(=O)N4CCCCC4)c(Cl)c3)ncc2F)n1C1CCOCC1 [13a]")
"< 5.70"

* * *

target: human recombinant GSK3β (Homo sapiens, UniProt P49841)
experimental.protocol: GSK3β scintillation proximity assay (SPA), inhibition of kinase activity
conditions: SPA, 1 μM ATP
property.label: IC50 (nM)

>>> numeric_value("Cc1ncc(-c2nc(Nc3ccc(C(=O)N4CCCCC4)c(Cl)c3)ncc2F)n1C1CCOCC1 [13a]")
3.31
>>> numeric_value("Cc1ncc(-c2nc(Nc3ccc(C(=O)N(C)C)c(Cl)c3)ncc2F)n1C1CCOCC1 [13b]")
4.01
>>> numeric_value("COCCN(C)C(=O)c1ccc(Nc2ncc(F)c(-c3cnc(C)n3C3CCOCC3)n2)cc1C [13d]")
6.61
>>> numeric_value("CC(=O)N1CCN(Cc2ccc(Nc3ncc(F)c(-c4cnc(C)n4C4CCOCC4)n3)cc2)CC1 [13e]")
4.44
>>> numeric_value("Cc1cc(Nc2ncc(F)c(-c3cnc(C)n3C3CCOCC3)n2)ccc1C(=O)N(C)C [13c]")
5.96

* * *

experimental.protocol: Unbound fraction in brain (fu brain)
Format: in vitro ADME
Classify by measured fraction unbound: Fulfilled if it is equal to or exceeds 0.1, Not fulfilled if it is smaller.

>>> class_name("Cc1ncc(-c2nc(Nc3ccc(C(=O)N4CCCCC4)c(Cl)c3)ncc2F)n1C1CCOCC1 [13a]")
"Not fulfilled"
>>> class_name("Cc1cc(Nc2ncc(F)c(-c3cnc(C)n3C3CCOCC3)n2)ccc1C(=O)N(C)C [13c]")
"Fulfilled"
>>> class_name("Cc1ncc(-c2nc(Nc3ccc(C(=O)N(C)C)c(Cl)c3)ncc2F)n1C1CCOCC1 [13b]")
"Fulfilled"
>>> class_name("CC(=O)N1CCN(Cc2ccc(Nc3ncc(F)c(-c4cnc(C)n4C4CCOCC4)n3)cc2)CC1 [13e]")
"Fulfilled"
>>> class_name("COCCN(C)C(=O)c1ccc(Nc2ncc(F)c(-c3cnc(C)n3C3CCOCC3)n2)cc1C [13d]")
"Fulfilled"

* * *

experimental.protocol: Solubility
Format: physicochemical
conditions: in dry DMSO at pH = 7.4
// reported solubility for each item listed
property.label: solubility (µM)

>>> numeric_value("CC(=O)N1CCN(Cc2ccc(Nc3ncc(F)c(-c4cnc(C)n4C4CCOCC4)n3)cc2)CC1 [13e]")
362
>>> numeric_value("Cc1ncc(-c2nc(Nc3ccc(C(=O)N(C)C)c(Cl)c3)ncc2F)n1C1CCOCC1 [13b]")
155
>>> numeric_value("Cc1ncc(-c2nc(Nc3ccc(C(=O)N4CCCCC4)c(Cl)c3)ncc2F)n1C1CCOCC1 [13a]")
234

* * *

experimental.protocol: Apparent permeability (Papp A-B) and efflux ratio
Assay type: in vitro ADME
// reported P app A-B for each item listed
property.label: P app A-B

>>> result("Cc1ncc(-c2nc(Nc3ccc(C(=O)N(C)C)c(Cl)c3)ncc2F)n1C1CCOCC1 [13b]")
"22.7 × 10^–6 cm/s"
>>> result("COCCN(C)C(=O)c1ccc(Nc2ncc(F)c(-c3cnc(C)n3C3CCOCC3)n2)cc1C [13d]")
"21.9 × 10^–6 cm/s"
>>> result("Cc1cc(Nc2ncc(F)c(-c3cnc(C)n3C3CCOCC3)n2)ccc1C(=O)N(C)C [13c]")
"16.2 × 10^–6 cm/s"
>>> result("CC(=O)N1CCN(Cc2ccc(Nc3ncc(F)c(-c4cnc(C)n4C4CCOCC4)n3)cc2)CC1 [13e]")
"12.7 × 10^–6 cm/s"
